System: cholesterol in serum
Test: Hypocholesterolemic effect in cholesterol-fed mice
Type: in vivo, Male ICR mice
Details: Mus musculus, po, 168 h; total minus HDL cholesterol; diet 1% cholesterol and 0.5% sodium cholate with 0.12% test compound, 7 days; read-out: (VLDL + LDL) Chol. reduction (%)
Entries and their inhibition in vivo at 0.12 % in diet
Reply with just the number (in %).

CCC(CC)C(=O)c1c(C(=O)OC)c(-c2ccc(OC)c(OC)c2)c2cc3c(cc2c1O)OCO3    50
CCC(CC)C(=O)c1c(C(=O)OC)c(-c2ccc(OC)c(OC)c2)c2c(OC)c(OC)c(OC)cc2c1O    78
CCC(=O)c1c(C(=O)OC)c(-c2ccc(OC)c(OC)c2)c2c(OC)c(OC)c(OC)c(C)c2c1O    64
COC(=O)c1c(C(=O)c2ccc(C(F)(F)F)cc2)c(O)c2cc(OC)c(OC)c(OC)c2c1-c1ccc(OC)c(OC)c1    61

// fetch inhibition in vivo at 0.12 % in diet given entry `COC(=O)c1c(C(=O)c2ccccc2OC)c(O)c2cc(OC)c(OC)c(OC)c2c1-c1ccc(OC)c(OC)c1` 63

Look up inhibition in vivo at 0.12 % in diet of `COc1ccc(-c2c(C(F)(F)F)c(C(=O)c3ccc(C(F)(F)F)cc3)c(O)c3cc(OC)c(OC)c(OC)c23)cc1OC` and report it. 53

Give the reported inhibition in vivo at 0.12 % in diet for this compound. `CCC(CC)CC(=O)c1c(C(=O)OC)c(-c2ccc(OC)cc2OC)c2c(OC)c(OC)c(OC)cc2c1O` 26

Answer with the recorded inhibition in vivo at 0.12 % in diet of `COC(=O)c1c(C(=O)C2CCCCC2)c(O)c2cc(OC)c(OC)c(OC)c2c1-c1ccc(OC)c(OC)c1` only. 61

Consider the compound `CCC(CC)CC(=O)c1c(C(=O)OC)c(-c2ccc(OC)c(OC)c2)c2cc3c(cc2c1O)OCCO3` and give its recorded inhibition in vivo at 0.12 % in diet. 49

Answer with reported inhibition in vivo at 0.12 % in diet of `COC(=O)c1c(C(=O)C(C)C)c(O)c2c(C)c(OC)c(OC)c(OC)c2c1-c1ccc(OC)c(OC)c1` 43

Quickly give me recorded inhibition in vivo at 0.12 % in diet for `COC(=O)c1c(C(=O)c2ccc(OC)c(OC)c2)c(O)c2cc(OC)c(OC)c(OC)c2c1-c1ccc(OC)c(OC)c1` 54

Please give the documented inhibition in vivo at 0.12 % in diet of `CCC(CC)CC(=O)c1c(C(=O)OC)c(-c2ccc(OC)c(OC)c2)c2c(OC)c(OC)c(OC)cc2c1O` 72

* * *

System: cholesterol in serum
Assay: Hypocholesterolemic effect in cholesterol-fed mice
Format: in vivo, Male ICR mice
Conditions: Mus musculus, po, 168 h; total minus HDL cholesterol; diet 1% cholesterol and 0.5% sodium cholate with 0.12% test compound, 7 days; read-out: (VLDL + LDL) Chol. reduction (%)
quantity: inhibition in vivo at 0.12 % in diet (%)
Your answer should be a plain number; it is taken to be in %.

These solved cases illustrate the format of a correct answer.
CCC(=O)c1c(C(=O)OC)c(-c2ccc(OC)c(OC)c2)c2c(OC)c(OC)c(OC)c(COC)c2c1O    41
COC(=O)c1c(C(=O)c2ccc(C(F)(F)F)cc2)c(O)c2cc(OC)c(OC)c(OC)c2c1-c1ccc(OC)cc1OC    59
COC(=O)c1c(C(=O)c2ccc(OC)cc2)c(O)c2cc(OC)c(OC)c(OC)c2c1-c1ccc(OC)c(OC)c1    60
COC(=O)c1c(C(=O)c2ccccc2)c(O)c2c(C)c(OC)c(OC)c(OC)c2c1-c1ccc(OC)c(OC)c1    42
CCC(CC)CC(=O)c1c(C(=O)OC)c(-c2ccc3c(c2)OCCO3)c2c(OC)c(OC)c(OC)cc2c1O    33

Proceed to the following item.
Give inhibition in vivo at 0.12 % in diet for `COC(=O)c1c(C(=O)CC2CCCCC2)c(O)c2cc(OC)c(OC)c(OC)c2c1-c1ccc(OC)c(OC)c1` 59

* * *

Tested on: cholesterol in serum
Test: Hypocholesterolemic effect in cholesterol-fed mice
Assay type: in vivo, Male ICR mice
Conditions: Mus musculus, po, 168 h; total minus HDL cholesterol; diet 1% cholesterol and 0.5% sodium cholate with 0.12% test compound, 7 days; read-out: (VLDL + LDL) Chol. reduction (%)
Measured inhibition in vivo at 0.12 % in diet values are reported for all entries that follow.
The answer is to be given in %; state only the numeric part.

CCC(=O)c1c(C(=O)OC)c(-c2ccc(OC)cc2OC)c2c(OC)c(OC)c(OC)cc2c1O [Example 41]    41
COC(=O)c1c(C(=O)c2ccc(C)cc2)c(O)c2cc(OC)c(OC)c(OC)c2c1-c1ccc(OC)c(OC)c1 [Example 19]    58
CCC(CC)CC(=O)c1c(C(=O)OC)c(-c2ccc(OC)c(OC)c2)c2sccc2c1O [Example 15]    43
COc1ccc(-c2c(C)c(C(=O)c3ccc(C(F)(F)F)cc3)c(O)c3cc(OC)c(OC)c(OC)c23)cc1OC [Example 62]    59
COC(=O)c1c(C(=O)c2ccc(Cl)cc2)c(O)c2cc3c(cc2c1-c1ccc(OC)c(OC)c1)OCO3 [Example 34]    53

Fill in inhibition in vivo at 0.12 % in diet for CCC(=O)c1c(C(=O)OC)c(-c2ccc(OC)c(OC)c2)c2c(OC)c(OC)c(OC)c(OC)c2c1O [Example 73] tested with cholesterol in serum. 60

Give cholesterol in serum inhibition in vivo at 0.12 % in diet for the following compound: COC(=O)c1c(C(=O)c2cccc(C)c2)c(O)c2cc(OC)c(OC)c(OC)c2c1-c1ccc(OC)c(OC)c1 [Example 18] 66

Retrieve inhibition in vivo at 0.12 % in diet on cholesterol in serum; query CCC(CC)C(=O)c1c(C)c(-c2ccc(OC)c(OC)c2)c2c(OC)c(OC)c(OC)cc2c1O [Example 64] 39

Send back cholesterol in serum inhibition in vivo at 0.12 % in diet of COC(=O)c1c(C(C)=O)c(O)c2cc(OC)c(OC)c(OC)c2c1-c1ccc(OC)c(OC)c1 [Example 2] only. 59

State the measured inhibition in vivo at 0.12 % in diet (cholesterol in serum) of CCC(CC)CC(=O)c1c(C(=O)OC)c(-c2ccc(OC)c(F)c2)c2c(OC)c(OC)c(OC)cc2c1O [Example 61] 43

Report measured inhibition in vivo at 0.12 % in diet on cholesterol in serum; entry: CCCc1ccc(C(=O)c2c(C(=O)OC)c(-c3ccc(OC)c(OC)c3)c3c(OC)c(OC)c(OC)cc3c2O)cc1 [Example 29] 42

Give measured inhibition in vivo at 0.12 % in diet for CCC(CC)CC(=O)c1c(C(=O)OC)c(-c2ccc(OC)c(OC)c2)c2c(OC)c(OC)c(OC)c(CO)c2c1O [Example 71] (cholesterol in serum). 44

Given CCC(CC)C(=O)c1c(C(F)(F)F)c(-c2ccc(OC)c(OC)c2)c2c(OC)c(OC)c(OC)cc2c1O [Example 66] , report its inhibition in vivo at 0.12 % in diet on cholesterol in serum. 36

# return inhibition in vivo at 0.12 % in diet for COC(=O)c1c(C(=O)Cc2ccccc2)c(O)c2cc(OC)c(OC)c(OC)c2c1-c1ccc(OC)c(OC)c1 [Example 8] , test system: cholesterol in serum 50

Name the recorded inhibition in vivo at 0.12 % in diet of CCC(=O)c1c(C(=O)OC)c(-c2ccc(OC)c(OC)c2)c2c(OC)c(OC)c(OC)cc2c1O [Example 16] , assay system cholesterol in serum. 56

Check cholesterol in serum data and give inhibition in vivo at 0.12 % in diet for CCC(=O)c1c(C(=O)OC)c(-c2ccc(OC)c(OC)c2)c2cc(OC(C)C)c(OC(C)C)cc2c1O [Example 38] . 61

Report inhibition in vivo at 0.12 % in diet from cholesterol in serum testing of COC(=O)c1c(C(=O)C(C)C)c(O)c2c(OC)c(OC)c(OC)c(OC)c2c1-c1ccc(OC)c(OC)c1 [Example 77] 53

* * *

# reported inhibition in vivo at 0.12 % in diet; entries follow
System: cholesterol in serum
Assay: Hypocholesterolemic effect in cholesterol-fed mice
Format: in vivo, Male ICR mice
Settings: Mus musculus, po, 168 h; total minus HDL cholesterol; diet 1% cholesterol and 0.5% sodium cholate with 0.12% test compound, 7 days; read-out: (VLDL + LDL) Chol. reduction (%)
Write the number in % without appending the unit.

Some entries whose results are on file:
COC(=O)c1c(C(=O)c2ccc(C(F)(F)F)cc2)c(O)c2cc3c(cc2c1-c1ccc(OC)cc1OC)OCO3 [Example 46]    47
COC(=O)c1c(C(=O)c2ccc3ccccc3c2)c(O)c2cc(OC)c(OC)c(OC)c2c1-c1ccc(OC)c(OC)c1 [Example 25]    59
COC(=O)c1c(C(=O)c2ccc(C(C)(C)C)cc2)c(O)c2cc(OC)c(OC)c(OC)c2c1-c1ccc(OC)c(OC)c1 [Example 30]    44
COC(=O)c1c(C(=O)C(C)C)c(O)c2cc(OC)c(OC)c(OC)c2c1-c1ccc(OC)c(OC)c1 [Example 3]    57
COC(=O)c1c(C(=O)c2ccccc2)c(O)c2cc(OC)c(OC)c(OC)c2c1-c1ccc(OC)c(OC)c1 [Example 6]    55

Supply recorded inhibition in vivo at 0.12 % in diet for COC(=O)c1c(C(=O)c2ccc(C(F)(F)F)cc2)c(O)c2cc(OC(C)C)c(OC(C)C)cc2c1-c1ccc(OC)c(OC)c1 [Example 40] here. 56

Give a short answer stating reported inhibition in vivo at 0.12 % in diet for CCC(CC)CC(=O)c1c(C(=O)OC)c(-c2ccc(OC)c(OC)c2)c2c(OC)c(OC)c(OC)c(OC)c2c1O [Example 69] . 16
